biological target: human dopamine D3 receptor (hD3R) (Homo sapiens); experiment: Human D3 receptor binding assay ([^3H]-7-OH-DPAT); conditions: CHO cells expressing hD3R, geometric mean of 2-5 determinations unless marked b (single determination), read-out: hD3 in CHO cells Ki
Sequence (P35462 whole entry): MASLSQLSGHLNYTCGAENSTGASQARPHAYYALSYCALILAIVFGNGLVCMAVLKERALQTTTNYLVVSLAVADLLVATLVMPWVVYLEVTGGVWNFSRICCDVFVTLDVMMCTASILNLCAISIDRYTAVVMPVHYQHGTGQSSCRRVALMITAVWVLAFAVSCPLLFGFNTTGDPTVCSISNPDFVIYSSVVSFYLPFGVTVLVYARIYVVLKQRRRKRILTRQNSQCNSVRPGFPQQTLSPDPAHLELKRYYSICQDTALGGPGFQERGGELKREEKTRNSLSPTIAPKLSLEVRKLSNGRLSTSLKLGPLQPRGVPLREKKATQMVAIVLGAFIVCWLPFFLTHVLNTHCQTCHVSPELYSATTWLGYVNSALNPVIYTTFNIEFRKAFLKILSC
pKi: −log10 of the molar value.
Metric: pKi

(A) CCN1CCc2cc(NS(=O)(=O)c3ccc(C4(F)CCOCC4)cc3)c(OC)nc2CC1
(B) COc1nc2c(cc1NS(=O)(=O)c1ccc([C@]3(F)C[C@@H](C)C3)nc1)CCN(C)CC2
(C) COc1nc2c(cc1NS(=O)(=O)c1ccc(C(C)C)cc1)CCN(C)CC2
(D) COc1nc2c(cc1NS(=O)(=O)c1ccc([C@H]3CCCCO3)nc1)CCN(C)CC2
QUERY: Order the records so the highest pKi appears first and the lowest last. Returns: the labels arranged in the requested order.
RESULT: C, A, B, D

All figures here come from patent US10590128B2.
